tested on: lymphocytic leukemia P388; test: Lymphocytic leukemia P388 test (intraperitoneal administration); type: in vivo, DBA/2 mice; conditions: Mus musculus, P388, ip; 12 mg./kg. i.p., days 1, 5 and 9; efficacy ≥125%; read-out: T/C × 100
We begin with a simple list: items and their reported response vs control in vivo at 12 mg/kg.
All answers are understood in %, so give the number only.

Data point: CN(C)CCNC1=C2C(=O)c3c(O)ccc(O)c3C(=O)C2=C(NCCN(C)C)CC1 ; response vs control in vivo at 12 mg/kg = 175

Others:
The measured response vs control in vivo at 12 mg/kg associated with O=C1c2c(O)ccc(O)c2C(=O)c2c(NCCN3CCCC3)ccc(NCCN3CCCC3)c21 reads 164

Quick note, response vs control in vivo at 12 mg/kg for CN(C)CCNc1ccc(NCCN(C)C)c2c1C(=O)c1c(O)ccc(O)c1C2=O landed at 256

Input CCN(CC)CCNC1=C2C(=O)c3c(O)ccc(O)c3C(=O)C2=C(NCCN(CC)CC)CC1 . Output response vs control in vivo at 12 mg/kg: 126

Notebook: CCN(CC)CCNc1ccc(NCCN(CC)CC)c2c1C(=O)c1c(O)ccc(O)c1C2=O , response vs control in vivo at 12 mg/kg read as 126

// response vs control in vivo at 12 mg/kg value for CN(C)CCCNc1ccc(NCCCN(C)C)c2c1C(=O)c1c(O)ccc(O)c1C2=O : 125

// response vs control in vivo at 12 mg/kg lookup, compound = NCCCNC1=C2C(=O)c3c(O)ccc(O)c3C(=O)C2=C(NCCCN)CC1 , result: 133

---

system: melanotic melanoma B16; experiment: Melanotic Melanoma B16 test; assay type: in vivo, C57BC/6 mice; settings: Mus musculus, ip; 6 mg./kg. i.p., days 1 through 9; efficacy ≥125%; read-out: T/C × 100
This section presents compounds with their documented response vs control in vivo at 6 mg/kg values.
A number alone suffices; assume %.

Use these answered entries as a reference point.
Entry CC(CNC1=C2C(=O)c3c(O)ccc(O)c3C(=O)C2=C(NCC(C)N(C)C)CC1)N(C)C (stereo not shown) , response vs control in vivo at 6 mg/kg reported as 115

Entry under test: O=C1C2=C(NCCNCCO)CCC(NCCNCCO)=C2C(=O)c2c(O)ccc(O)c21 . Its response vs control in vivo at 6 mg/kg was 59

The compound listed as NCCNCCNc1ccc(NCCNCCN)c2c1C(=O)c1c(O)ccc(O)c1C2=O has a reported response vs control in vivo at 6 mg/kg of 125

Next up:
response vs control in vivo at 6 mg/kg recorded for this compound, NCCCNC1=C2C(=O)c3c(O)ccc(O)c3C(=O)C2=C(NCCCN)CC1 , is 141

---

test system: melanotic melanoma B16; assay: Melanotic Melanoma B16 test; type: in vivo, C57BC/6 mice; conditions: Mus musculus, ip; 6 mg./kg. i.p., days 1 through 9; efficacy ≥125%; read-out: T/C × 100
response vs control in vivo at 6 mg/kg: recorded values
Number in %, nothing else.

These recorded examples may help you get a feel for the data.
Consider CN(C)CCNC1=C2C(=O)c3c(O)ccc(O)c3C(=O)C2=C(NCCN(C)C)CC1 . Its measured response vs control in vivo at 6 mg/kg is 130

O=C1c2c(O)ccc(O)c2C(=O)c2c(NCCN3CCCC3)ccc(NCCN3CCCC3)c21 has a reported response vs control in vivo at 6 mg/kg of 137

Please fill in: response vs control in vivo at 6 mg/kg reported for CNCCNC1=C2C(=O)c3c(O)ccc(O)c3C(=O)C2=C(NCCNC)CC1 = 203

---
Lab note: CN(C)CCNc1ccc(NCCN(C)C)c2c1C(=O)c1c(O)ccc(O)c1C2=O gave response vs control in vivo at 6 mg/kg of 150

Entry under test: O=C1C2=C(NCCN3CCNCC3)CCC(NCCN3CCNCC3)=C2C(=O)c2c(O)ccc(O)c21 . Its response vs control in vivo at 6 mg/kg was 129

---

system: lymphocytic leukemia P388; assay: Lymphocytic leukemia P388 test (intraperitoneal administration); format: in vivo, DBA/2 mice; conditions: Mus musculus, P388, ip; 6.2 mg./kg. i.p., days 1, 5 and 9; efficacy ≥125%; read-out: T/C × 100
observed.property: response vs control in vivo at 6.2 mg/kg (%)
Expressed in %, but write only the number.

Result for CNCCNCCNC1=C2C(=O)c3c(O)ccc(O)c3C(=O)C2=C(NCCNCCNC)CC1 , tested on lymphocytic leukemia P388, response vs control in vivo at 6.2 mg/kg: 136

Given the molecule CNCCNc1ccc(NCCNC)c2c1C(=O)c1c(O)ccc(O)c1C2=O.Cl.Cl [dihydrochloride] and test system lymphocytic leukemia P388, the measured response vs control in vivo at 6.2 mg/kg is 190

Case O=C1C2=C(NCCN(CCO)CCO)CCC(NCCN(CCO)CCO)=C2C(=O)c2c(O)ccc(O)c21 , lymphocytic leukemia P388, response vs control in vivo at 6.2 mg/kg recorded as 120

---
Known value: lymphocytic leukemia P388 response vs control in vivo at 6.2 mg/kg of the molecule O=C1c2c(O)ccc(O)c2C(=O)c2c(NCCNCCN3CCOCC3)ccc(NCCNCCN3CCOCC3)c21 equals 140

Considering O=C1C2=C(NCCNCCO)CCC(NCCNCCO)=C2C(=O)c2c(O)ccc(O)c21 , its response vs control in vivo at 6.2 mg/kg with lymphocytic leukemia P388 was recorded as 219

---

Listed next: entries and their corresponding response vs control in vivo at 6.2 mg/kg.
tested on: lymphocytic leukemia P388; assay: Lymphocytic leukemia P388 test (intraperitoneal administration); type: in vivo, DBA/2 mice; settings: Mus musculus, P388, ip; 6.2 mg./kg. i.p., days 1, 5 and 9; efficacy ≥125%; read-out: T/C × 100
The reply should be a number in %, with the unit left off.

Summary for this molecule, Cl.Cl.NCCNc1ccc(NCCN)c2c1C(=O)c1c(O)ccc(O)c1C2=O [dihydrochloride] : response vs control in vivo at 6.2 mg/kg is 141

The molecule listed as CNCCNC1=C2C(=O)c3c(O)ccc(O)c3C(=O)C2=C(NCCNC)CC1 has a reported response vs control in vivo at 6.2 mg/kg of 191

The recorded response vs control in vivo at 6.2 mg/kg for CC(O)CNCCNc1ccc(NCCNCC(C)O)c2c1C(=O)c1c(O)ccc(O)c1C2=O.Cl.Cl (stereo not shown) [dihydrochloride] is 230

Now for another entry.
For this molecule ( Cl.Cl.O=C1c2c(O)ccc(O)c2C(=O)c2c(NCCN(CCO)CCO)ccc(NCCN(CCO)CCO)c21 [dihydrochloride] ), measured response vs control in vivo at 6.2 mg/kg is 206

---

system: lymphocytic leukemia P388; test: Lymphocytic leukemia P388 test (intraperitoneal administration); format: in vivo, DBA/2 mice; details: 0.78 mg./kg. i.p., days 1, 5 and 9
observed.property: Median Survival Time

// below: answered compounds
Per the reported lymphocytic leukemia P388 data, Cl.Cl.O=C1c2c(O)ccc(O)c2C(=O)c2c(NCCNCCCO)ccc(NCCNCCCO)c21 has Median Survival Time of 21.5 days

lymphocytic leukemia P388 Median Survival Time of O=C1c2c(O)ccc(O)c2C(=O)c2c(NCCN3CC3)ccc(NCCN3CC3)c21 is 14.0 days

Log: lymphocytic leukemia P388, compound O=C1C2=C(NCCNCCO)CCC(NCCNCCO)=C2C(=O)c2c(O)ccc(O)c21 , Median Survival Time = 28.0 days

Simply: CNCCNc1ccc(NCCNC)c2c1C(=O)c1c(O)ccc(O)c1C2=O.Cl.Cl , lymphocytic leukemia P388, Median Survival Time = 18.5 days

***
Form: item Cl.Cl.O=C1c2c(O)ccc(O)c2C(=O)c2c(NCCNCCO)ccc(NCCNCCO)c21 ; test system lymphocytic leukemia P388; Median Survival Time: > 29.0 days

---

test system: melanotic melanoma B16; assay: Melanotic Melanoma B16 test; assay type: in vivo, C57BC/6 mice; settings: 6 mg./kg. i.p., days 1 through 9
Rule: Median Survival Time below 20 days gives t. Equal to or above 20 days gives f.

Task: In plain terms, does CN(C)CCNC1=C2C(=O)c3c(O)ccc(O)c3C(=O)C2=C(NCCN(C)C)CC1 come in under 20 days for Median Survival Time?
Output: f

Task: Answer whether the compound Cl.Cl.O=C1c2c(O)ccc(O)c2C(=O)c2c(NCCNCCO)ccc(NCCNCCO)c21 has Median Survival Time strictly less than 20 days
Output: t

Task: For O=C1C2=C(NCCN3CCNCC3)CCC(NCCN3CCNCC3)=C2C(=O)c2c(O)ccc(O)c21 , is the recorded Median Survival Time below the cut-off of 20 days?
Output: f

Task: Please let me know if O=C1c2c(O)ccc(O)c2C(=O)c2c(NCCN3CCCC3)ccc(NCCN3CCCC3)c21 shows Median Survival Time below 20 days.
Output: f

Task: Is the reported Median Survival Time for NCCCNC1=C2C(=O)c3c(O)ccc(O)c3C(=O)C2=C(NCCCN)CC1 strictly below 20 days?
Output: f

More entries:
Task: Identify whether the compound CN(C)CCNc1ccc(NCCN(C)C)c2c1C(=O)c1c(O)ccc(O)c1C2=O records Median Survival Time below 20 days.
Output: f

Task: Regarding CNCCNC1=C2C(=O)c3c(O)ccc(O)c3C(=O)C2=C(NCCNC)CC1 , kindly confirm whether its Median Survival Time is beneath 20 days.
Output: f

Task: Hello, I'm reviewing records and need to know if Median Survival Time of CC(C)NCCNC1=C2C(=O)c3c(O)ccc(O)c3C(=O)C2=C(NCCNC(C)C)CC1 is below 20 days. Could you check?
Output: f

Task: Take the compound O=C1C2=C(NCCNCCO)CCC(NCCNCCO)=C2C(=O)c2c(O)ccc(O)c21 and say whether its Median Survival Time is less than 20 days.
Output: t

Origin of the recorded values: patent US4526989A
